Reference source for all entries: PubChem BioAssay (NCI)

system: SF-295 CNS; assay: NCI tumour cell line growth inhibition, 48 h
Entries and their measured TGI follow.

Return reported TGI; argument: CN(C)CCNC(=O)c1cccc2c(NC(CCCN=C(N)N)C(=O)O)c3ccccc3nc12 (stereo not given) 41.9 µM

Return reported TGI; argument: C#Cc1cccc(NC(=O)C2CCCCN2C(=O)CCl)c1 (stereo not given) > 82.5 µM

====

tested on: HL-60(TB) leukemia; experiment: NCI tumour cell line growth inhibition, 48 h
assay readout: TGI (µM)
Field format: number, assumed µM, no unit text.

Known results for compounds:
compound=O=C1C(Nc2ccc(S(=O)(=O)Nc3cnc4ccccc4n3)cc2)=CC(=Nc2ccc(S(=O)(=O)Nc3cnc4ccccc4n3)cc2)c2ccccc21 experimental_result=54.7
compound=Clc1ccc(Nc2nnc(COc3ccccc3)c3ccccc23)cc1 experimental_result=11.9

Provide value of TGI for this record tested with HL-60(TB) leukemia: O=[N+]([O-])c1ccc(NC(c2ccccc2)c2ccc3cccnc3c2O)cc1 (stereo not given) 1.47
